Entries and their inhibition value (inhibitor concentration at 25% inhibition) values follow.
- TARGET: IgE antibodies of the individual allergic patient serum II/12
- PROTOCOL_DETAILS: EAST inhibition, individual serum II/12
TEST_READOUT: inhibition value (inhibitor concentration at 25% inhibition)

| BINDER | READING |
| --- | --- |
| natural Phl p 5b, purified by affinity chromatography (protein) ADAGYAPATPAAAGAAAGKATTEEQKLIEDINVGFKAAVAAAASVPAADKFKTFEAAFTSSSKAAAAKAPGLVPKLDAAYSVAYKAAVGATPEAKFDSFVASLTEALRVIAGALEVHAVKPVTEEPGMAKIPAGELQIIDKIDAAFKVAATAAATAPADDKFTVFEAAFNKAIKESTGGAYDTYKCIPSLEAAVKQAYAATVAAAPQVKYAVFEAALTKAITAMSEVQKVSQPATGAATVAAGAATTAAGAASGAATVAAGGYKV | 5.2e-10 mol/L |
| rPhl p 5b point mutant PM3 (A13C) (protein) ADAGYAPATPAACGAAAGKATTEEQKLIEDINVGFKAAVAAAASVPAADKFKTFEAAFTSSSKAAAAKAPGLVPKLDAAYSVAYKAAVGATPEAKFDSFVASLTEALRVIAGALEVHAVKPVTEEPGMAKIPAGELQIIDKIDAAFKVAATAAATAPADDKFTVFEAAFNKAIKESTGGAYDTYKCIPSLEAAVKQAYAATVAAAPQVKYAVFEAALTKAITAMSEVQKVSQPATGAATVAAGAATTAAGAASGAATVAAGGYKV | 1.3e-09 mol/L |
| rPhl p 5b deletion mutant DM3 (deletion A154-T177, A220T) (protein) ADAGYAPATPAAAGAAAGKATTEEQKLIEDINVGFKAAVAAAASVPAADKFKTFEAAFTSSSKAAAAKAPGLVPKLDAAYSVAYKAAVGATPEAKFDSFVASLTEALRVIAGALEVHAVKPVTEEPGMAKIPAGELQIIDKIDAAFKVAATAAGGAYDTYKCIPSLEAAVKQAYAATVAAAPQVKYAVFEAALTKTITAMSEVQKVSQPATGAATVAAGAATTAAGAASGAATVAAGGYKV | 4.5e-09 mol/L |
